Values from PubChem BioAssay AID1996

Kindly state solubility kinetic for each of the entries shown.
- Condition details: buffer; pH 7.4; 200.0 µM
Give bare numbers, in µg/mL.

Worked cases, solubility kinetic given:
Compound | solubility kinetic, µg/mL
CN(C)CCN(C(=O)c1ccc2ccccc2c1)c1nc2c(F)cc(F)cc2s1.Cl | 32.8
Cn1c(=O)c(C=Nc2ccccc2)c(O)c2ccccc21 | 11.2

For every record below, what is its solubility kinetic?
1. Cc1ccc(C)c(NC(=O)C(=O)NCCc2c[nH]c3ccccc23)c1
2. O=C(COc1ccc2ccc(=O)oc2c1)Nc1nccs1
3. CCOC(=O)Cc1cc(=O)[nH]c(/N=C(\N)Nc2ccc(C)c(C)c2)n1
4. Cc1cc(C)nc(SCC(=O)c2ccc(F)c(C)c2)n1

1. 0.7
2. 11.3
3. 2.1
4. 14.7

For every record below, what is its solubility kinetic?
1. c1ccc(CNc2c3ccccc3nc3ccccc23)cc1
2. COc1ccc(NC(=O)/C(C#N)=C/c2ccc[nH]2)c(OC)c1
3. CNS(=O)(=O)Cc1ccc2[nH]cc(CCN(C)C)c2c1
4. S=C(NC1CCCCC1)NC1CC2C=CC1C2 (centres undefined)

1. 40.5
2. 0.3
3. 40.3
4. 19.5

For every record below, what is its solubility kinetic?
1. O=C(Nc1ccccc1F)c1ccc(CN2CCN(c3ccccc3)CC2)cc1
2. CN(CC(=O)Nc1cccc(F)c1)C(=O)c1ccc(-c2ccc(Cl)cc2)o1
3. CCOc1ccc(CO/N=C/c2c(C)[nH]c(=O)[nH]c2=O)cc1
4. CCOc1ccccc1NC(=O)c1ccccc1N(C)S(=O)(=O)c1ccc(C)cc1

1. 4.1
2. 5.6
3. 5.8
4. 3.2

Look up solubility kinetic: O=C(NCc1ccncc1)C(=O)Nc1ccc2c(c1)OCO2 9.5

###

Kindly state solubility kinetic for each of the entries shown.
- Condition details: buffer; pH 7.4; 200.0 µM
Answers are plain numbers, in µg/mL.

Worked cases, solubility kinetic given:
Molecule | Value unit | solubility kinetic
Cc1nc2ccc(NC(=O)c3cc(Cl)ccn3)cc2s1 | µg/mL | 4.9
CC(=O)c1cccc(NC(=O)c2nc(-c3ccccc3)oc2C)c1 | µg/mL | 12.1
Cn1c(=O)c2ccccc2n(CC(=O)Nc2ccc3c(c2)OCCO3)c1=O | µg/mL | 4.6
COc1ccc2oc(=O)c(N3C(=O)c4ccccc4C3=O)cc2c1 | µg/mL | 1.2
CCOC(=O)N1CCc2c(sc(N)c2C#N)C1 | µg/mL | 31.2
CCN(C(=O)COc1nc(C)cc(C)c1C#N)c1ccccc1 | µg/mL | 9.3

For every record below, what is its solubility kinetic?
1. Cc1nc(Cl)sc1C(=O)Nc1ccc(C(F)(F)F)cc1
2. O=C(COC(=O)c1ccco1)Nc1ccc(Cl)cn1
3. O=C(Oc1ccccc1N1CCOCC1)c1ccccc1
4. CCn1c(=O)c2ccccc2n(CC(=O)NC2CCCCC2)c1=O
5. Cc1ccc(Cc2nc3ccccc3[nH]2)cc1

1. 6.6
2. 24.8
3. 26.3
4. 15.4
5. 31.8

For every record below, what is its solubility kinetic?
1. COc1ccc(C2(C)CC(C)(C)Nc3ccccc32)cc1 (centres undefined)
2. Clc1ccc(-c2csc(-c3cccnc3)n2)s1
3. COc1ccc(C(C)=O)cc1COC(=O)[C@H](Cc1ccccc1)NC(=O)c1ccco1
4. COc1ccccc1/C=C/C(=O)N1CCN(S(=O)(=O)c2cccs2)CC1
5. Cc1cccc(OCCC(=O)Nc2ccccc2C(N)=O)c1
6. N/C(=N\OC(=O)Cc1cccs1)c1ccc(Cl)cc1
7. CC(C)c1ccccc1OCCCN1CCCC1.O=C(O)C(=O)O
8. COc1ccc(N2CCN(C(=O)CN3c4cccc5cccc(c45)S3(=O)=O)CC2)cc1

5.7
0.7
8
23.7
44.2
5.8
47
2.3

For every record below, what is its solubility kinetic?
1. O=C(COc1ccc(C(=O)c2ccccc2)cc1)Nc1ncccc1O
2. COCCn1c(SCC(=O)N2CCOCC2)nc2ccccc2c1=O
3. O=C(NCCc1csc(-c2ccccc2)n1)c1ccco1
4. Cc1cccc(NC(=O)c2ccccc2NC(=O)c2ccccc2)n1
5. Cc1cccnc1NC(=O)Nc1ccccc1
6. COC(=O)Cc1ccc(NC(=S)N2CCC(Cc3ccccc3)CC2)cc1

24.9
51.5
42.4
1.8
4.1
6.5

###

- Condition details: buffer; pH 7.4; 200.0 µM
Quantity kind: solubility kinetic

Worked cases, solubility kinetic given:
Molecule | solubility kinetic
COCCN(C(=S)Nc1ccc(C)cc1C)C(C)c1cccs1 (centres undefined) | 7.7 µg/mL
O=c1cc(C(F)(F)F)nc(SCc2cccnc2)[nH]1 | > 43.1 µg/mL
CCC(C)NC(=O)CSc1ccc(S(=O)(=O)N(C)C2CCCCC2)cn1 (centres undefined) | 59.4 µg/mL
CCOC(=O)c1ccc(Oc2cc(C)nc(Cl)n2)cc1 | > 43.9 µg/mL
NC(=O)c1cc(-c2ccncc2)nc2ccc(Cl)cc12 | 37 µg/mL
COc1ccc(NC(=O)CNC(=O)Cc2ccccc2)cc1 | 10.6 µg/mL

For every record below, what is its solubility kinetic?
1. Cn1c(/C(C#N)=C(\O)c2ccc([N+](=O)[O-])s2)nc2ccccc21
2. Cc1ccsc1/C=C1\SC(=S)N(CC2CCCO2)C1=O (centres undefined)
3. Cc1cc(Cl)c(S(=O)(=O)N2CCCC2)cc1OCC(N)=O
4. CCCn1cnc2scc(-c3ccc(OC)cc3)c2c1=O
5. COc1ccc(CCNC(=O)/C=C/c2ccco2)cc1
6. Cc1nc(C)c(C(=O)OC(C)C(=O)Nc2ccc(F)cc2)s1 (centres undefined)
7. CCOCCCNC(=O)c1cc2c(=O)n3ccccc3nc2s1

< 0.2 µg/mL
< 0.7 µg/mL
> 49.9 µg/mL
13.9 µg/mL
38.9 µg/mL
> 48.4 µg/mL
46.4 µg/mL

For every record below, what is its solubility kinetic?
1. COc1ccccc1Cn1c(CO)nc2ccccc21
2. CCOC(=O)C1=C(C)NC(C)=C(C(=O)OCC)C1C(=O)OCC(=O)N(C)Cc1ccccc1
3. Cc1ccc(S(=O)(=O)NCCN2CCOCC2)c(C)c1.Cl

1: 37.4 µg/mL; 2: 2.8 µg/mL; 3: > 50.2 µg/mL

For every record below, what is its solubility kinetic?
1. COc1cc2[nH]c(C(=O)Nc3ccc(F)cc3)cc2c(OC)c1OC
2. CC1CC2(C)CC(C)C1(COC(=O)Nc1ccccc1)CO2 (centres undefined)
3. O=C(COC(=O)c1ccc(Cl)nc1)Nc1ccc2c(c1)OCCO2
4. CC(=O)N/C(=N\c1nc(C)cc(C)n1)Nc1ccc2ccccc2c1
5. COCn1cnc(-c2ccccc2)c1-c1ccccc1
6. COc1cc(NC(=O)Cc2ccccc2)ccc1NC(=O)c1ccccc1
7. COc1ccc2c(CC(=O)OCC(=O)NC(N)=O)coc2c1
8. O=C(CN1C(=O)NC2(CCOc3ccccc32)C1=O)NCCc1ccc(F)cc1 (centres undefined)

1: 2.4 µg/mL; 2: 44.6 µg/mL; 3: 4.8 µg/mL; 4: 0.5 µg/mL; 5: 32.5 µg/mL; 6: < 0.4 µg/mL; 7: 18.1 µg/mL; 8: > 59.6 µg/mL

###

- Condition details: buffer; pH 7.4; 200.0 µM
Kindly state solubility kinetic for each of the entries shown.
Answers are plain numbers, in µg/mL.

Worked cases, solubility kinetic given:
Compound | Value unit | Val
Clc1ccc(-c2ccc(CN3CCCCC3)o2)cc1 | µg/mL | 30.1
CCC1CN(C(=O)NCc2ccc(F)cc2)c2ccccc2O1 (configuration not stated) | µg/mL | 37.4
COC(=O)c1sccc1NC(=O)Nc1ccccc1OC | µg/mL | 40
Clc1ccc(CN2CCN(c3ncccn3)CC2)cc1 | µg/mL | 29.6
O=C(/C=C/c1ccco1)Nc1ccc2nc3n(c(=O)c2c1)CCCC3 | µg/mL | 3.7

Look up solubility kinetic: Cc1ccc(C)c(NS(=O)(=O)c2ccc3oc(=O)ccc3c2)c1 1.4

###

- Condition details: buffer; pH 7.4; 200.0 µM
Quantity kind: solubility kinetic (µg/mL)
Give bare numbers, in µg/mL.

Worked cases, solubility kinetic given:
Molecule | Quantity kind | Val
COc1ccc(CCNC2=CC(=O)CC(C)(C)C2)cc1 | solubility kinetic | 40.4
O=C(NC1CCCc2ccccc21)C12CC3CC(CC(O)(C3)C1)C2 (stereo not given) | solubility kinetic | 41.4
COc1ccccc1CC(=O)N1CCOCC1 | solubility kinetic | 34.6

For every record below, what is its solubility kinetic?
1. Cc1ccc(CN(C)C2CCN(C)CC2)cc1
2. CCc1c(C(=O)OCc2ccccc2)[nH]c(C)c1C
3. N=c1oc2cc(O)ccc2cc1C(=O)Nc1ccc(F)cc1
4. CCOC(=O)C1CCN(S(=O)(=O)c2ccc3c4c(cccc24)C(=O)N3CC)CC1
5. O=S(=O)(NCc1ccccc1)c1ccc2ccccc2c1

31.3
1.3
1.5
10.4
1.1

For every record below, what is its solubility kinetic?
1. Nc1nc(Cl)cc(-c2ccccc2)n1
2. COC(=O)c1ccc(NC(=O)c2ccc3nccnc3c2)cc1

29.3
3.5
